The measurements presented in this section are drawn from paper PMC3898741.

assay: Measured log D; assay type: physicochemical
Listed next: entries and their corresponding logD.
assay metric: logD

# compound, assay metric, test value
measured = [
    ("CC(C)CCNc1ccc(-c2cnc3ccc(NC4CCN(C)CC4)nn23)cn1 [Compound 17]", "logD", 3.4),
    ("CC(C)CCNc1ccc(-c2cnc3ccc(N4CCC(N(C)C)CC4)nn23)cn1 [Compound 27]", "logD", 3.2),
    ("CC(C)CCNc1ccc(-c2cnc3ccc(NC4CCN(C)C4)nn23)cn1 (stereo not shown) [Compound 24]", "logD", 3.5),
    ("CC(C)CCNc1ccc(-c2cnc3ccc(N4CCC(N)CC4)nn23)cn1 [Compound 28]", "logD", 2.5),
]
